targetOfAssay: Metabotropic glutamate receptor 5 (Rattus norvegicus)
protocolText: potentiators of rat mGlu5 glutamate response – cell-based, HEK293A, calcium mobilization, SAR follow-up (AID 588715)
conditionsUsed: HEK293A rat mGluR5, Ca2+ mobilization fluorescence, PAM
pEC50: −log10 of the molar value.
readoutKind: pEC50

{"columns": ["smilesRecord", "observedMeasurement"],
 "data": [
  ["CC(C)(C)NC(=O)c1ccc(C#Cc2cccc(F)c2)cn1", 7.89],
  ["O=C(COCc1ccncc1)N1CCN(c2ccc(F)cc2Cl)CC1", 5.64],
  ["O=C(NC1CCC1)c1ccc(C#Cc2cccc(F)c2)cn1", 7.92],
  ["O=C(NC1CCC1)c1ccc(C#Cc2cccc(F)c2)c[n+]1[O-]", 7.60],
  ["O=C(NC1COC1)c1ccc(C#Cc2cccc(F)c2)nc1", 5.32],
  ["O=C(NC1CCC1)c1ccc(C#CC2CC2)cn1", 5.89]
]}

###

targetOfAssay: UniProtKB P31424
Sequence (P31424 whole entry, looked up): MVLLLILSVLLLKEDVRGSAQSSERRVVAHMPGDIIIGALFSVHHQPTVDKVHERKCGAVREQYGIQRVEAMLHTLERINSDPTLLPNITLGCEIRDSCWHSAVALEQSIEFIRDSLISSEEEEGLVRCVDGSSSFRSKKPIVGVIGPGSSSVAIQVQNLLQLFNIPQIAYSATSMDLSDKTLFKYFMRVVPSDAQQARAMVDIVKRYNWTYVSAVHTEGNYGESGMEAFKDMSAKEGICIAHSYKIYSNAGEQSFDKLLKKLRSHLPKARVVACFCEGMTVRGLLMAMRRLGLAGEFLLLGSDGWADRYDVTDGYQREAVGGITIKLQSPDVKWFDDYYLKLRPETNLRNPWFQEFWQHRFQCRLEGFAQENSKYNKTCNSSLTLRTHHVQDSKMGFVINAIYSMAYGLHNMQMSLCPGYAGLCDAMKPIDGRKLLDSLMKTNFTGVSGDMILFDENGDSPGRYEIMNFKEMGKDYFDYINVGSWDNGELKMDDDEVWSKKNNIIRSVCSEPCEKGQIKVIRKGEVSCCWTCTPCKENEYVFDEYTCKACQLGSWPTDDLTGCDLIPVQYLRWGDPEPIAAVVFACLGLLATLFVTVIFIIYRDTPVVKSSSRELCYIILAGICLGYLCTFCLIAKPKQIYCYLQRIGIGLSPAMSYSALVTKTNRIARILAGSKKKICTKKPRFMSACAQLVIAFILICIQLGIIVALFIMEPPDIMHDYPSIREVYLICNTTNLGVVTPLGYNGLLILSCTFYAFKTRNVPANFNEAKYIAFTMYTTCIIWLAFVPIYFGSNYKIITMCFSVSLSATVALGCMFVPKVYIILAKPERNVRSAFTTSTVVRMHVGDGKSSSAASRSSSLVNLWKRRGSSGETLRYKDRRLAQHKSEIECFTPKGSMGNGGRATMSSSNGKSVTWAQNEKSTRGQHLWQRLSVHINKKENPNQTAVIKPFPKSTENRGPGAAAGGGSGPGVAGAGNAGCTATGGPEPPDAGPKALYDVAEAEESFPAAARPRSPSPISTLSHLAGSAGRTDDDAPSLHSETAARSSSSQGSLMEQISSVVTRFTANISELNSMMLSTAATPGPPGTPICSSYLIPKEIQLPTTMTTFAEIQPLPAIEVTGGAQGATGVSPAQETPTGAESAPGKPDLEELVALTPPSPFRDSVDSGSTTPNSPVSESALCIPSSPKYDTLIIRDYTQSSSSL
protocolText: potentiators of rat mGlu5 glutamate response – cell-based, HEK293A, calcium mobilization, SAR follow-up (AID 588715)
conditionsUsed: HEK293A rat mGluR5, Ca2+ mobilization fluorescence, PAM
pEC50: −log10 of the molar value.
Mark no for pEC50 values under 7, and yes for everything at or above.

{"columns": ["compound", "targetOfAssay", "className"],
 "data": [
  ["CC(C)(CO)NC(=O)c1ccc(C#Cc2cccc(F)c2)nc1", "UniProtKB P31424", "no"],
  ["CC(C)(CO)NC(=O)c1ccc(C#Cc2cccc(F)c2)cn1", "UniProtKB P31424", "yes"],
  ["O=C(c1ccc(C#Cc2ccccc2)cc1)N1CCC(O)CC1", "UniProtKB P31424", "no"],
  ["C[C@@H](NC(=O)c1ccc(C#Cc2cccc(F)c2)cn1)C(C)(C)O", "UniProtKB P31424", "yes"],
  ["CC(CO)(CO)NC(=O)c1ccc(C#Cc2cccc(F)c2)cn1", "UniProtKB P31424", "no"],
  ["O=C(NC1CC(O)C1)c1ccc(C#Cc2cccc(F)c2)cn1 (configuration not stated)", "UniProtKB P31424", "no"],
  ["C[C@@H](NC(=O)c1ccc(C#CC2CC2)cn1)C(C)(C)O", "UniProtKB P31424", "no"],
  ["O=C(NC1CCC1)c1ccc(C#CC2CCCC2)cn1", "UniProtKB P31424", "no"],
  ["CC(C)(C)NC(=O)c1ccc(C#Cc2cccc(F)c2)nc1", "UniProtKB P31424", "yes"],
  ["O=C(c1ccc(C#Cc2cccc(F)c2)nc1)N1CCC(O)CC1", "UniProtKB P31424", "no"]
]}
